Target: TRAILshort (UniProt P50591)
Sequence (P50591 other isoform, or with tags, fused parts or gaps): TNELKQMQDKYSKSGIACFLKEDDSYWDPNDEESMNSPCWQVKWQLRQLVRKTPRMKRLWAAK
Test: SPR
QUANTITY_KIND: Kd

[[record]]
binder = "HC3LC3 (antibody, human IgG1, kappa, V domains shown) VH: QVQLVQSGAEVKKPGSSVKVSCKSSGYIFTNNDMNWVRQAPGQGLDWMGGIDPGDGRTKYNEKFKGRVTISADIFSNTAYMELNSLTSEDTAVYFCGRGGYEFGIDYWGQGTTVTVSS VL: DIVMTQSPDSLAVSLGERATINCKSSQSLLNSGNQKNSLAWYQQRPGHPPKLLLYGASTRESGVPDRFSGSGSGTDFTLTISSLQAEDVAVYYCQNDHSFPLTFGGGTKVEIKR"
quantity_kind = "Kd"
reported_value = "4.5 pM"

